assay.system: pooled human IgG
Recorded Enzyme Activity Endpoint Assay (purified): Fc for the following proteins
observed.property: Enzyme Activity Endpoint Assay (purified): Fc (ng/µL)

protein | unit.name | value.measured
PRT-612 (protein) MQITSVWTKGVTPLTPEQFRYNNEDVIHAPYLAHQGWYDITKAFDGKDNLLCGAATAGNMLHWWFDQNKTEIEAYLSKHPEKQKIIFNNQELFDLRAAINSKDSQTNSQLFNYFRDKAFPNLSARQLGVMPDLVLDMFINGYYLNVFKTQSTDVNRPYQDKDKRGGIFDAVFTRGDQTTLLTARHDLKNKGLNDISTIIKQELTEGRALALSHTYANVSISHVINLWGADFNAEGNLEAIYVTDSDANASIGMKKYFVGINAHGHVAISAKKIEGENIGAQVLGLFTLSSGKDIWQKLSLEHHHHHH | ng/µL | 533
PRT-250 (protein) MVTSVWTKGVTPPTNFTYGEDVLHAPYVANQGWYDITKLFNGKDDLLCGAATAGNMLHWWFDQNKEQIENYLKKHPEKQKINFNGEQMFDVKEAIDTKDSQLDSKLFDYFKEKAFPNLSTKHLGVFPDHVIDMFINGYRLSLLNHGPTPVKRGSKDPRGGIFDAVFTRGDQSKLLTNRHDFKEKTLKEISDLIKQELTEGKALGISHTYANGRINHVINLWGADFDAEGNLEAIYVTDSDSNPSIGMKKYFVGVNSSGKVAISAKEIEEDNIGAQVLGLFTLSTGQDIWNQTN | ng/µL | 310
PRT-146 (protein) MANQEIRYSEVTPYHIKTVWTKGVTPPANFTQGEDVFHAPYVANQGWYDITKTFNGKDDLLCGAATAGNMLHWWFDQNKDQIKRYLEEHPEKQKINFNGEQMFDVKEAIDTKNHQLDSKLFEYFKEKAFPYLSTKHLGVFPDHVIDMFINGYRLSLTNHGPTPVKEGSKDPRGGIFDAVFTRGDQSKLLTSRHDFKEKTLNDISQLIKQELQSGKALGLSHTYANVRINHVINLWGADFDAEGNLEAIYVTDSDSNASIGMKKYFVGKNSAGKVAISAKEIKEDNIGAQVLGLFTLSTGQDSWNQTN | ng/µL | 215
PRT-75 (protein) MANQEIRYSEVTPYHVTSVWTKGVTPPAKFTQGEDVFHAPYVANQGWYDITKTFNGKDDLLCGAATAGNMLHWWFDQNKEKIEAYLKKHPEKQKIMFGDQELLDVRKVINTKDDQTNSELFNYFRDKAFPGLSARRLGVMPDLVLDMFINGYRLNVTKTQTTDVNETYQTKDKRGGIFDAVFTRGDQSKLLTSRHDFKEKNLKEISDLIKKELTEGKALGLSHTYANVRINHVINLWGADFDSNGNLKAIYVTDSDSNASIGMKKYFVGVNSAGKVAISAKEIKDDNIGAQVLGLFTLSTGQDIWNQTN | ng/µL | 76
PRT-620 (protein) MQITSVWTKGVTPLTPEQFRYNNEDVIHAPYLAHQGWYDITKAFDGKDNLLCGAATAGNMLHWWFDQNKTEIEAYLSKHPEKQKIIFNNQELFDLKAAIDTKDSQTNSQLFNYFRDKAFPNLSARQLGVMPDLVLDMFINGYYLNVFKTQSTDVNRPYQDKDKRGGIFDAVFTRGDQTTLLTARHDLKNKTLKEISDIIKQELTEGRALALSHTYANVSISHVINLWGADFNAEGNLEAIYVTDSDANASIGMKKYFVGINAHGHVAISAKKIEGENIGAQVLGLFTLSSGKDIWQKLSLEHHHHHH | ng/µL | 448
PRT-114 (protein) MRNATEAYNEETPHQITSVWTKGVTPPTPEQFRYNNEDVIHAPYLANQGWYDITKTFNGKDNLLCGAATAGNMLHWWFDQNKTEIEAYLSKHPEKQKIIFNNQELFDLKAAIDTKDSQTNSQLFNYFREKAFPNLSARQLGVMPDLVLDMFINGYYLNVTKTQSTDVNRPYQDKDKRGGIFDAVFTRGDQTKLLTARHDLKNKTLNEISTLIKQELTEGRALALSHTYANVSISHVINLWGADFNAEGNLEAIYVTDSDANASIGMKKYFVGVNAAGHVAISAKKIEGENIGAQVLGLFTLSSGKDIWQKLS | ng/µL | 162
PRT-70 (protein) MANQEIRYSEVTPYHVTSVWTKGVTPPANFTQGEDVFHAPYVANQGWYDITKTFNGKDDLLCGAATAGNMLHWWFDQNKEQIKRYLEEHPEKQKINFNGEQMFDVKEAIDTKNHQLDSKLFEYFKEKAFPYLSTKHLGVFPDHVIDMFINGYRLSLTNHGPTPVKEGSKDPRGGIFDAVFTRGDQSKLLTSRHDFKEKNLKEISDLIKKELTEGKALGLSHTYANVRINHVINLWGADFDSNGNLKAIYVTDSDSNASIGMKKYFVGVNSAGKVAISAKEIKEDNIGAQVLGLFTLSTGQDSWNQTN | ng/µL | 124
PRT-231 (protein) MEVVEVWPYGQNPNGKTEILSQTEDSESLQRLRDIEDFQAEKKMQNVVYTKWLDGVDVKDHDFRKIVDGNIAYYATPLLNGRGFYDINKDFNRDSDKCAAAVAANMFHYWLDINRDNVDRFLRQNPEKHGIIELPDGQLKLSDFLNTYESDHGYRDKSKLFDFISNNFNGPVWTDKLLDNYINGYAYNYKYGRTIEDPTKNTSKINFFKEVFNEKILTNNHSIRNQNEFSVLLSEALYTGKAIGLSYGPAGLRHSLGHIISVWGADLDADGNVVAIYVTDSDDKKLTIGDERVGLKRYKISTDDENRARLTAYEETHNTGGQIRGLWTLDTGKYAWADYFDKTEQTGTDQAEQLEHHHHHH | ng/µL | 388
